Listed compounds paired with reported microsomal CLint at 0.5 μM
RUN DESCRIPTION: Human liver microsomal stability assay
TEST PARAMETERS: human, microsomes, pH 7.4, HLM CLint(mic), human liver microsomes

COMPOUND	microsomal CLint at 0.5 μM
COc1ccc(CNC(=O)C2CCN(C(C)c3cccc4ccccc34)C2)cc1 (stereo not drawn)	128 µL/min/mg
COc1ccc(CNC(=O)C2CCN(C(C)c3cccc4ccccc34)CC2)cc1 (stereo not drawn)	80 µL/min/mg
COc1ccc(CC(=O)N2CCN([C@@H](C)c3cccc4ccccc34)CC2)cc1	186 µL/min/mg

====

Tested on: uninfected HeLa-ACE2 cells
TEST PARAMETERS: Hela-ACE2 Uninfected Cell Toxicity, curve fit
Given measured nHill, output True if it is greater than or equal to 3 and False if not.

COMPOUND	CLASS
CC(c1cccc2ccccc12)N1CCC(C(=O)NCc2ccc(Cl)cc2)CC1 (stereo not drawn) [Compound 13]	True
Cc1cccc(/C=N/Nc2cc(N3CCOCC3)nc(OCCc3ccccn3)n2)c1 [Apilimod, reference compound]	False
COc1ccc(CNC(=O)C2CCN(C(C)c3cccc4ccccc34)C2)cc1 (stereo not drawn) [Compound 17]	False
CCC(CC)COC(=O)[C@H](C)N[P@](=O)(OC[C@H]1O[C@@](C#N)(c2ccc3c(N)ncnn23)[C@H](O)[C@@H]1O)Oc1ccccc1 [Remdesivir, reference compound]	False

====

Listed compounds paired with reported solubility kinetic at 24 h
RUN DESCRIPTION: physchem
TEST PARAMETERS: 25 °C, pH 7.4, aqueous buffer, kinetic from dmso stock
PARAMETER: solubility kinetic at 24 h

COMPOUND	DATA VALUE
C[C@H](c1cccc2ccccc12)N1CCC(C(=O)NCc2ccc(Cl)cc2)CC1	10.2 µg/mL
CC[C@@H](C)N1CCC(C(=O)NCc2ccc(OC)cc2)CC1 (racemic)	> 18.3 µg/mL
COc1ccc(CNC(=O)C2CCN([C@H](C)c3ccccc3)CC2)cc1	> 22.3 µg/mL
Cc1ccc(CNC(=O)C2CCN([C@@H](C)c3cccc4ccccc34)CC2)cc1 (stereo in doubt)	8.62 µg/mL
COc1ccc(CNC(=O)C2CCN([C@@H](C)c3ccccc3)CC2)cc1	> 22 µg/mL
COc1ccc(CNC(=O)[C@@H]2CCN([C@H](C)c3cccc4ccccc34)C2)cc1 (stereo in doubt)	> 19.8 µg/mL
COc1ccc(CC(=O)NC2CCN([C@@H](C)c3cccc4ccccc34)CC2)cc1	> 15.9 µg/mL

====

RUN DESCRIPTION: physchem
TEST PARAMETERS: pH 7.4

MOLECULE	chromatographic logD
COc1ccc(CNC(=O)C2CCN([C@H](C)c3ccccc3)CC2)cc1	3
COc1ccc(CNC(=O)[C@@H]2CCN([C@H](C)c3cccc4ccccc34)C2)cc1 (stereo in doubt)	4.24
C[C@H](c1cccc2ccccc12)N1CCC(C(=O)NCc2ccc(Cl)cc2)CC1	4.7
CC(c1cccc2ccccc12)N1CCC(C(=O)NCc2ccc(Cl)cc2)CC1 (stereo not shown)	4.7
COc1ccc(CC(=O)NC2CCN([C@@H](C)c3cccc4ccccc34)CC2)cc1	4.27
CC[C@@H](C)N1CCC(C(=O)NCc2ccc(OC)cc2)CC1 (racemic)	1.61
C[C@@H](c1cccc2ccccc12)N1CCC(C(=O)NCC2CCCCC2)CC1 (racemic)	4.8

All values here come from paper PMC12461331.
